Documented koff across a set of binders
Biological target: T1, recombinant hOX40, extracellular part (Leu 29 - Ala 216) (human, UniProt P43489 29-216)
T1 chain: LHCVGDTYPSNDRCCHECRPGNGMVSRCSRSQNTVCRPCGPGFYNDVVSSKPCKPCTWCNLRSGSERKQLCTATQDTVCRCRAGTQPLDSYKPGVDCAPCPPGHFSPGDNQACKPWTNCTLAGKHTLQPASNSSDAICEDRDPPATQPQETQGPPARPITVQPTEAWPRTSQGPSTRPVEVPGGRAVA
Experiment: BLI

BINDER | koff [s⁻¹]
hOX40-Nb O19 (VHH, biotin where immobilised in BLI (site not stated)) VHH: QVQLQESGGGLVQPGGSLRLSCAGSTDTFSMSAAVSWARQAPGKGLEWVSSILSDGSTYYADSVRGRFTISRDNANNTGSLQMNNLKVEDTAVYYCTNLRGRLWSNHKDDYGGQGSRVTVSS | 0.00021
hOX40-Nb O18 (VHH, biotin where immobilised in BLI (site not stated)) VHH: QVQLVESGGGLVQPGGSLRLSCAASGFTLEDYVIGWFRQAPGKEREEVSCISGSGGIRNVADSMEGRATISRDNAKNTVYLQMNSLKPEDTAVYYCAAGFETSYSYSYYCGVHEYDYWGQGTLVTVSS | 0.00075
hOX40-Nb O12 (VHH, biotin where immobilised in BLI (site not stated)) VHH: DVQLQESGGGLVQPGGSLRLSCAASGFTLDNYAIGWFRQAPGKEREGVSCISSSGESTNYADSVKGRFTISRDNAKNTVYLQTNSLKPEDTAVYYCAAVDDIGTTVQFMCNMGPYEYDYWGQGSPVTVSS | 2e-05
hOX40-Nb O7 (VHH, biotin where immobilised in BLI (site not stated)) VHH: DVQLVESGGGLVQPGGSLRLSCAASGFTFGSYAMGWARQVPGKGLEWVSGIYSDGSTYYADSVKGRFTISRDNAKNTVYLQMNSLKPEDTAVYYCATWGAAAPYDYWGQGTQVTVSS | 0.00117
